testSystem: human cloned dopamine D4.2 receptors (Homo sapiens, UniProt P21917, DEL265-296)
Construct: expressed in transfected cells; host or cells: CHO cells
test: Inhibition of the binding of [3H]YM-09151-2 to human dopamine D4 receptors
details: 50 nM compound; [3H]YM-09151-2 0.06 nM; membranes of CHO-cells
Use Met when the recorded inhibition at 0.05 µM is no lower than 80%; use Not met when it is lower.

Prompt: Entry "Cc1ccc(NC(=O)CCc2ccccc2)cc1CCN1CCC(c2c[nH]c3c(Cl)cccc23)CC1" : is its inhibition at 0.05 µM no less than 80%?
Completion: Met

Prompt: Could you please find out whether "Cc1ccc(NC(=O)c2ccsc2)cc1CCN1CCC(c2c[nH]c3c(Cl)cccc23)CC1" has inhibition at 0.05 µM that meets 80% or exceeds it?
Completion: Not met

Prompt: Test whether the molecule "Cc1ccc(NC(=O)c2ccc(F)cc2)cc1CCN1CCC(c2c[nH]c3c(Cl)cccc23)CC1" records inhibition at 0.05 µM of 80% or higher.
Completion: Not met

Prompt: Check this molecule for inhibition at 0.05 µM at or above 80%: "Cc1ccc(NC(=O)Nc2ccc(F)cc2)cc1CCN1CCC(c2c[nH]c3ccc(F)cc23)CC1"
Completion: Met

Prompt: Could you verify whether the entry "Cc1ccc(NC(=O)C2CC2)cc1CCN1CCC(c2c[nH]c3cc(Cl)ccc23)CC1" shows inhibition at 0.05 µM of no less than 80%?
Completion: Met

Prompt: Given "Cc1ccc(NC(=O)C2CCCC2)cc1CCN1CCC(c2c[nH]c3cc(Cl)ccc23)CC1" , state whether its inhibition at 0.05 µM is at least 80%.
Completion: Met

Prompt: Reported inhibition at 0.05 µM reaches at least 80% for "COc1cccc(C(=O)Nc2ccc(C)c(CCN3CCC(c4c[nH]c5ccc(Cl)cc45)CC3)c2)c1" ?
Completion: Not met

---

testSystem: human cloned dopamine D4.2 receptors (Homo sapiens, UniProt P21917, DEL265-296)
Construct: expressed in transfected cells; host or cells: CHO cells
test: Inhibition of the binding of [3H]YM-09151-2 to human dopamine D4 receptors
details: 50 nM compound; [3H]YM-09151-2 0.06 nM; membranes of CHO-cells
testReadout: inhibition at 0.05 µM (%)
Lab book: enter the figure in %, no units written.

Prompt: Recorded inhibition at 0.05 µM of COc1cccc(C(=O)Nc2ccc(C)c(CCN3CCC(c4c[nH]c5ccc(F)cc45)CC3)c2)c1 [Compound 3j] , please.
Completion: 90

Prompt: I'd like to know its inhibition at 0.05 µM. The compound in question is Cc1ccc(NC(=O)C(C)(C)C)cc1CCN1CCC(c2c[nH]c3ccc(F)cc23)CC1 [Compound 3g]
Completion: 86

Prompt: Record request: inhibition at 0.05 µM value, item Cc1ccc(NC(=O)c2cnns2)cc1CCN1CCC(c2c[nH]c3c(Cl)cccc23)CC1 [Compound 4k]
Completion: 67

Prompt: Recorded inhibition at 0.05 µM of Cc1ccc(NC(=O)CCc2ccccc2)cc1CCN1CCC(c2c[nH]c3ccc(F)cc23)CC1 [Compound 3l] , please.
Completion: 74

Prompt: Name the recorded inhibition at 0.05 µM for Cc1ccc(NC(=O)c2ccccc2)cc1CCN1CCC(c2c[nH]c3c(Cl)cccc23)CC1 [Compound 4d] .
Completion: 48

Prompt: Param item = COc1ccc(CC(=O)Nc2ccc(C)c(CCN3CCC(c4c[nH]c5cc(Cl)ccc45)CC3)c2)cc1 [Compound 3t] ; retrieve measured inhibition at 0.05 µM.
Completion: 75

Prompt: Could you tell me which inhibition at 0.05 µM is on file for Cc1ccc(NC(=O)C2CC2)cc1CCN1CCC(c2c[nH]c3c(Cl)cccc23)CC1 [Compound 3ag] ?
Completion: 95

Prompt: Name the recorded inhibition at 0.05 µM for Cc1ccc(NC(=O)c2cccs2)cc1CCN1CCC(c2c[nH]c3c(Cl)cccc23)CC1 [Compound 4i] .
Completion: 85

---

Please provide measured inhibition at 0.05 µM for the entries that follow.
testSystem: human cloned dopamine D4.2 receptors (Homo sapiens, UniProt P21917, DEL265-296)
Construct: expressed in transfected cells; host or cells: CHO cells
Sequence (P21917 with tags, fused parts or gaps DEL265-296): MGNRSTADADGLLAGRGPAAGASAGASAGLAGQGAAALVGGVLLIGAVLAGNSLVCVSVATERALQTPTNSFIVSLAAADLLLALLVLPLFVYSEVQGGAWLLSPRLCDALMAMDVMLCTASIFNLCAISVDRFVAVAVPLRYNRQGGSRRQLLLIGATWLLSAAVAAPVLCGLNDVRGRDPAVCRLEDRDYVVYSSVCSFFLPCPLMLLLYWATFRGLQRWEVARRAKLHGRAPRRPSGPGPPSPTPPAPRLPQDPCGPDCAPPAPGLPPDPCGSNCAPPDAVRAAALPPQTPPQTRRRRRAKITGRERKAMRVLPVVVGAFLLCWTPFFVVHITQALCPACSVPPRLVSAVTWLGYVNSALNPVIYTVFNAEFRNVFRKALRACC
test: Inhibition of the binding of [3H]YM-09151-2 to human dopamine D4 receptors
details: 50 nM compound; [3H]YM-09151-2 0.06 nM; membranes of CHO-cells
Could you write the number and then its unit?

Prompt: Please look up its inhibition at 0.05 µM: "Cc1ccc(NC(=O)c2cccs2)cc1CCN1CCC(c2c[nH]c3ccc(Cl)cc23)CC1"
Completion: 86%

Prompt: Data request, read-out inhibition at 0.05 µM, for "Cc1ccc(NC(=O)N(C)c2ccccc2)cc1CCN1CCC(c2c[nH]c3cc(Cl)ccc23)CC1"
Completion: 76%

Prompt: Item under review: "Cc1ccc(NC(=O)c2cccnc2)cc1CCN1CCC(c2c[nH]c3cc(Cl)ccc23)CC1" . Reported inhibition at 0.05 µM?
Completion: 92%

Prompt: # query: inhibition at 0.05 µM of entry "Cc1ccc(C(=O)Nc2ccc(C)c(CCN3CCC(c4c[nH]c5cc(Cl)ccc45)CC3)c2)cc1"
Completion: 86%

---

Kindly state inhibition at 0.05 µM for each of the entries shown.
testSystem: human cloned dopamine D4.2 receptors (Homo sapiens, UniProt P21917, DEL265-296)
Construct: expressed in transfected cells; host or cells: CHO cells
Sequence (P21917 with tags, fused parts or gaps DEL265-296): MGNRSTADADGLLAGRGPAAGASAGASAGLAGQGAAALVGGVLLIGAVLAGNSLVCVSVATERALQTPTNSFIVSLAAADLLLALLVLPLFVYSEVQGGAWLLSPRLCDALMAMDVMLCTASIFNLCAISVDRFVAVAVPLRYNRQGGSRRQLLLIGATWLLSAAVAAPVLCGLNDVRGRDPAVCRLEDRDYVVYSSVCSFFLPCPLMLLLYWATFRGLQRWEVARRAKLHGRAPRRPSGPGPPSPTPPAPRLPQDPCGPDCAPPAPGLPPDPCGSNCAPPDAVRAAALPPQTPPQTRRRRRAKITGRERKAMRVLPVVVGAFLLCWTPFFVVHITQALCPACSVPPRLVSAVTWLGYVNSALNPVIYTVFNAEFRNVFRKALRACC
test: Inhibition of the binding of [3H]YM-09151-2 to human dopamine D4 receptors
details: 50 nM compound; [3H]YM-09151-2 0.06 nM; membranes of CHO-cells
Just the number in %, nothing appended.

Prompt: Identify the measured inhibition at 0.05 µM of "CC(=O)Nc1ccc(C)c(CCN2CCC(c3c[nH]c4ccc(F)cc34)CC2)c1" for human cloned dopamine D4.2 receptors (Homo sapiens, UniProt P21917, DEL265-296).
Completion: 83

Prompt: Record "CCCCCC(=O)Nc1ccc(C)c(CCN2CCC(c3c[nH]c4ccc(F)cc34)CC2)c1" : what is its inhibition at 0.05 µM with human cloned dopamine D4.2 receptors (Homo sapiens, UniProt P21917, DEL265-296)?
Completion: 83

Prompt: What inhibition at 0.05 µM appears in the records for this molecule with human cloned dopamine D4.2 receptors (Homo sapiens, UniProt P21917, DEL265-296)? "Cc1ccc(NC(=O)C(C)C)cc1CCN1CCC(c2c[nH]c3cc(Cl)ccc23)CC1"
Completion: 97

Prompt: Lab note: need inhibition at 0.05 µM for "COc1ccc(C(=O)Nc2ccc(C)c(CCN3CCC(c4c[nH]c5c(Cl)cccc45)CC3)c2)cc1" on human cloned dopamine D4.2 receptors (Homo sapiens, UniProt P21917, DEL265-296), anyone have it?
Completion: 48
